Entries and their measured microsomal CLint follow.
assay: Intrinsic clearance in monkey liver microsomes; format: ADME, Macaca mulatta, Microsome; details: rhesus monkey, read-out: CLH
Could you give me the number in µL/min/mg? Just the number is fine.

[[record]]
compound = "CC(O)c1cn(CCNc2nonc2/C(=N/O)Nc2ccc(F)c(Br)c2)nn1 (configuration not stated)"
observable = "microsomal CLint"
value_measured = 20.2


// next item, microsomal CLint requested
Record summary for `OCCOCc1cn(CCNc2nonc2/C(=N/O)Nc2ccc(F)c(Br)c2)nn1` : reported microsomal CLint = 36

----------
experiment: Metabolic stability in rat liver microsomes assessed as rate constant; assay type: ADME, Microsome
Observable: k el (s⁻¹)
The figure you give is taken to be in s⁻¹; do not add the unit.

[[record]]
compound = "OCCOCc1cn(CCNc2nonc2/C(=N/O)Nc2ccc(F)c(Br)c2)nn1"
value_measured = 0.000545


Briefly, k el measured for CC(O)c1cn(CCNc2nonc2/C(=N/O)Nc2ccc(F)c(Br)c2)nn1 (configuration not stated) : 0.00218
